- System: AncSZ
- Assay remarks: phosphorylation enrichment, bacterial display (enrichment ratio); higher = better substrate or ligand; peptides without Tyr show the background
Output 1 for phosphorylation enrichment not less than 1; output -1 otherwise.

Assess whether reported phosphorylation enrichment for AGRTGYDNREI [BCL2_Y9] sits at 1 or higher.
-1

Reported phosphorylation enrichment reaches at least 1 for RLRKFHLGKFL [KLB_Y906_Y906H_YF] ?
1

phosphorylation enrichment >= 1 for NTGYYYDLYGG [PTPN11_Y63_D61Y] ?
1

Is phosphorylation enrichment for NGSKGYAYVHF [PABPC5_Y147] at or above 1?
1

Hello, I need to know if ATHSGYRLNDF [CLDN14_Y233_YF] has measured phosphorylation enrichment not below 1. Thanks!
-1

Answer whether phosphorylation enrichment of GFSRHCEDGFP [CTNND1_Y217_Y217C_YF] is greater than or equal to 1.
-1

Say whether INNIDYYKKTT [FGFR2_Y656] shows phosphorylation enrichment of 1 or more.
-1

# bool: phosphorylation enrichment of FLAVGYHKLHI [IDS_Y225_P228L] >= 1
1

Hi, just wondering whether ICFSDYVEVAD [PHACTR1_Y525_R521C] shows phosphorylation enrichment of 1 or higher.
1

Can FGFPGYQSKHF [TIMP3_Y177_YF] be said to have phosphorylation enrichment at or above 1?
-1

Check the entry PFTRNYFVWAV [CYBA_Y87_R90W_YF] : does phosphorylation enrichment equal or exceed 1?
1

Hello, I need to know if HRGSLYLAIEY [TEK_Y899_Y897S] has measured phosphorylation enrichment not below 1. Thanks!
1

Answer whether phosphorylation enrichment of HRGFLYLAIEY [TEK_Y899_Y897F] is greater than or equal to 1.
1

Could you please find out whether REGAKYVSHSA [ASS1_Y113_G117S] has phosphorylation enrichment that meets 1 or exceeds it?
-1

Test whether the sequence TVLEPYADPFF [ZC3H18_Y367_YF] records phosphorylation enrichment of 1 or higher.
1

Hi team, for GCKNRYDKGKP [THAP1_Y14_D17G] , is the recorded phosphorylation enrichment at or above 1?
-1

Please indicate if the recorded phosphorylation enrichment for GQDLFYEDEDL [PACS1_Y303] meets or exceeds 1.
1

State whether the measured phosphorylation enrichment reaches 1, counting equality as reaching it, for MDDDQYALLTA [EFCAB6_Y675_T680A]
1

Please indicate if the recorded phosphorylation enrichment for LVQAEYWHDPI [PPT1_Y185] meets or exceeds 1.
1

Please check the record ISKKIYDTIHD [CTNNA3_Y614] and state if its phosphorylation enrichment is at or above 1.
-1

Is the recorded value of phosphorylation enrichment equal to or greater than 1 for this sequence? NREGVYTVFAP [TGFBI_Y537]
1

Reported phosphorylation enrichment reaches at least 1 for FLGKGYSDGGC [MC4R_Y35_S30F] ?
-1

* * *

- Target under test: FGFR1 (UniProt P11362)
- Sequence (P11362 whole entry, looked up): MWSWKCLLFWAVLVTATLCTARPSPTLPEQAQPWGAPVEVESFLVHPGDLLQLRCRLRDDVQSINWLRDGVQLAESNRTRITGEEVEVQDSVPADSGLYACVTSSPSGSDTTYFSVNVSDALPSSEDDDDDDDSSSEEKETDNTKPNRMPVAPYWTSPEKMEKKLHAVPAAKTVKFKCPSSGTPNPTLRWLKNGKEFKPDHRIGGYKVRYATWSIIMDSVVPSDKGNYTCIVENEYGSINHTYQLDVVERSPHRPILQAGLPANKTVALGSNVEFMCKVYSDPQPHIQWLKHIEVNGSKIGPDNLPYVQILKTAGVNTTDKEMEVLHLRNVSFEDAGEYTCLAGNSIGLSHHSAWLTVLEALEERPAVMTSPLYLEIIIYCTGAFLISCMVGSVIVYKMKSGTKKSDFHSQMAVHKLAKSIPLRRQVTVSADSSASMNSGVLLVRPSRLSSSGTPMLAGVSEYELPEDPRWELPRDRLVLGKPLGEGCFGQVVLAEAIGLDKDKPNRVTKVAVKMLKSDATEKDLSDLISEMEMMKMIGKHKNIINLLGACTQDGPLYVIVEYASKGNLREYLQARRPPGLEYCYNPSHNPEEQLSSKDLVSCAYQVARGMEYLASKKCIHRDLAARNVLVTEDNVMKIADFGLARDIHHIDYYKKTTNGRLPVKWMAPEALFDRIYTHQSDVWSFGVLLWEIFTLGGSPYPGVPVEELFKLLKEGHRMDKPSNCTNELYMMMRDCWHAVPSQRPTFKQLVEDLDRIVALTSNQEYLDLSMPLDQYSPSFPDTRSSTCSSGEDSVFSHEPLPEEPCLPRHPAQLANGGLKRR
- Assay remarks: phosphorylation enrichment, bacterial display (enrichment ratio); higher = better substrate or ligand; peptides without Tyr show the background
Provide the reported phosphorylation enrichment of each item.
Lab note: record the figure alone, no unit after it.

I have this sequence here, PASLSYLSFEG [EXOSC3_Y143] , and I need its recorded phosphorylation enrichment.
0.591

Query (sequence): RAILNYIASKF [GSTA3_Y74_YF] ; field requested: phosphorylation enrichment
1.08

Can you look up the measured phosphorylation enrichment of SFGMVYEGNAR [INSR_Y1038] for me?
0.41

Consider the sequence CTLTHYKSAVK [ASNS_Y555_R550C] and give its measured phosphorylation enrichment.
0.514

Entry under review: DAHFTYSRFPW [LY75_Y888_D884A_YF] . Reported phosphorylation enrichment?
0.748

Query (sequence): GESLTYVSTTF [C1orf162_Y120_A121V] ; field requested: phosphorylation enrichment
0.508

// phosphorylation enrichment lookup, key: FLAATYPTLGQ [NF1_Y2508_V2511L_YF]
0.424

Look at this sequence and give its reported phosphorylation enrichment. AGARMYGVLPW [PLP1_Y207_D203G]
0.489

I have this sequence here, ELCSEYHKSRK [SPINK5_Y440_R441H] , and I need its recorded phosphorylation enrichment.
0.513

Please look up its phosphorylation enrichment: IHFAIYFLKFS [ARMC9_Y107_L108F_YF]
0.441

Name the recorded phosphorylation enrichment for AEMKRYAESSS [RAI14_Y869] .
0.467

Any idea what its phosphorylation enrichment is? The sequence is QRPFVYFFSFL [PTEN_Y176_R173P_YF]
0.789

Dear colleague, I am looking for the recorded phosphorylation enrichment of the following sequence: GKTQQYDCKWY [BCR_Y751]
0.464

Given the entry DPGVSYRTREE [PDHA1_Y301] , report its measured phosphorylation enrichment.
0.637

Looking for the measured phosphorylation enrichment of PEAALYGRFTF [FYN_Y440_I445F] , can you help?
1.29

Reported phosphorylation enrichment, sequence LSDGPYSSPYE [EPOR_Y485_N487S] : ____
0.421

Tell me the measured phosphorylation enrichment of SDFFAYSPVRE [H6PD_Y449_YF] , please.
0.422

Bench note: what phosphorylation enrichment did ERIELYELDKK [PMM2_Y145_F144L] show?
0.481

What value of phosphorylation enrichment has been reported for the following sequence? GAVGNYSRGLA [MGMT_Y158_G160R]
0.406

I would be grateful if you could share the reported phosphorylation enrichment for TVLEHYRRTHC [MYBPC3_Y1119] .
0.438

* * *

- Target under test: SHP2-C SH2;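 further: peptide library displayed on the E. coli surface as eCPX fusions, selected cells deep-sequenced, score is each peptide's frequency after selection divided by its frequency in the input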
- Assay remarks: SH2 binding enrichment of the phosphorylated peptide, bacterial display (enrichment ratio); higher = better substrate or ligand; peptides without Tyr show the background
Provide the reported SH2 binding enrichment of each item.
Give a plain numeric answer without units written out.

Give its SH2 binding enrichment value. Item: ETRWKYHFEVV [GCNT3_Y267]
0.678

Consider the sequence shown here: EVVGRYSVHNA [MLH1_Y183] What is its recorded SH2 binding enrichment?
0.597

If you can, please state the reported SH2 binding enrichment value of GFGGGYGGVLT [KRT19_Y65_A60G_YF] .
0.999

Request the reported SH2 binding enrichment associated with TLSGTYQFIIA [FOXL2_Y81_I80T_YF]
1.13

Can you look up the measured SH2 binding enrichment of ERNAHYRTPKI [PTK2B_Y699_R698H] for me?
0.611

So what does the record say about SH2 binding enrichment for RNAAEYPLSSG [ABL1_Y139_L140P] ?
0.354

Sample ADKSAYLMGPN [MYH7_Y386_L390P] — what was its SH2 binding enrichment?
0.729

Which SH2 binding enrichment value belongs to SEDSEYYKAFE [CASQ2_Y178] ?
0.614

Report SH2 binding enrichment for IEELTYVIKQD [STX5_Y137_I138V] please.
0.602

Bench note: what SH2 binding enrichment did LLANAYIYDVQ [L1CAM_Y418_V421D] show?
1.13

Any idea what SH2 binding enrichment was measured for QGIIIYKAAYF [SLC25A4_Y187_R188K] ?
0.942

Quick check: SH2 binding enrichment of YFWDGYMPRQY [GSS_Y270_R267W] ?
1.1

// returns reported SH2 binding enrichment for input FIAVGYVDDSQ [HLA-A_Y51_T55S]
0.959

* * *

- Target under test: FGFR3 (UniProt P22607)
- Sequence (P22607 whole entry, looked up): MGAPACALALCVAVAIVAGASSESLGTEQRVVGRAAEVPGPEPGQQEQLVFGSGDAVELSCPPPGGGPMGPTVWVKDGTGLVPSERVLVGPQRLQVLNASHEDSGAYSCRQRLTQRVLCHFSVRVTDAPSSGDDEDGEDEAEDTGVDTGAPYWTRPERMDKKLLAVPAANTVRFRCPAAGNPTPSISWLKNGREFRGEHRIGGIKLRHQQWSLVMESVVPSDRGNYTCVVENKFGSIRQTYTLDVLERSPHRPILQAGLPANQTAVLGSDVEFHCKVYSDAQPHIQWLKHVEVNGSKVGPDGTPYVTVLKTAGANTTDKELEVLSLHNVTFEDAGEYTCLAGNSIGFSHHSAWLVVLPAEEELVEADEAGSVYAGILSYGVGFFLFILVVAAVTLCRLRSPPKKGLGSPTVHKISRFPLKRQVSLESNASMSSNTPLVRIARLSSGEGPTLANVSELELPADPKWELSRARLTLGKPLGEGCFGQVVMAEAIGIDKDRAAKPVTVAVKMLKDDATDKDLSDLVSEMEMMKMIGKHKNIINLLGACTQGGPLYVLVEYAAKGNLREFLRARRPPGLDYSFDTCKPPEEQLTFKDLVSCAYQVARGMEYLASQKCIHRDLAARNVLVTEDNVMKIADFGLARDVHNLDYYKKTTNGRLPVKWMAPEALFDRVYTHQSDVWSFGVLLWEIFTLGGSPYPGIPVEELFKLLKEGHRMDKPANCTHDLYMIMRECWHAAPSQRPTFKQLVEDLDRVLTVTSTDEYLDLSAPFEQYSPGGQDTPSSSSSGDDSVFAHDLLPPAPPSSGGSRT
- Assay remarks: phosphorylation enrichment, bacterial display (enrichment ratio); higher = better substrate or ligand; peptides without Tyr show the background
Measure: phosphorylation enrichment
Could you respond with only the numeric value?

Hello, I am looking for reported phosphorylation enrichment with FGFR3 (UniProt P22607) for RESYKYLPSSL [CXXC1_Y218_F219L] . Could you help?
0.821

Hi! What's the reported phosphorylation enrichment for CRWKRYQCSHD [GDPD5_Y30_R32C] on FGFR3 (UniProt P22607)?
0.562

Lab note: need phosphorylation enrichment with FGFR3 (UniProt P22607) for entry KKYPDYIQIAR [SGMS2_Y59_M64R] , please look it up.
2.55

* * *

- Target under test: FGFR3 (UniProt P22607)
- Assay remarks: phosphorylation enrichment, bacterial display (enrichment ratio); higher = better substrate or ligand; peptides without Tyr show the background
Just so you know, the groups by phosphorylation enrichment go like this: low end: < 0.6; middle: ≥ 0.6 and < 0.8; high end: ≥ 0.8

Using the reported phosphorylation enrichment, which band applies to FTRNFYVWAVL [CYBA_Y88_R90W_YF] ?
middle

Band for TRSYKCLLLSM [NF1_Y491_Y491C] ?
middle

Kindly state the category for this sequence: AHLLQYNHQVK [LGALS3_Y221_R224Q]
low end

Which class does SIKGKYVTALY [KCNH2_Y611_D609G] fall in?
low end

Please classify: YRVAGYKTQGG [TIA1_Y383_E384K]
low end

Bin this entry: VITDYYVDMKF [MPP4_Y567]
high end

Could you place DVCKNYAEAKD [ALB_Y343] in its proper category? Many thanks.
middle

Field: class (phosphorylation enrichment) — entry: VSGIPYSQPKQ [NEU1_Y251_G252S]
low end

Looking at TYQYKYPEGSS [TGM4_Y440_E437Q] , which class would you pick?
middle

Looking at FSGDCYRIQGR [DDR2_Y741_Y740C_YF] , which class would you pick?
middle

Returns: class label. Input: SLAARYYNWVS [FLT4_Y1230]
high end

In plain terms, what class is DKANRYFSPNV [PTEN_Y336_F341V] ?
low end

Which phosphorylation enrichment band matches KGERGYPGTPG [COL4A1_Y348] ?
low end

Entry GQDLFYEDEDL [PACS1_Y303] belongs to which category?
high end

Exam item: assign ITSLLYHVVGW [GBA_Y412_N409S] to the correct category.
high end

Band for the recorded phosphorylation enrichment of PIGRKYKKVRF [F8_Y442_R437P] ?
low end

Determine which band this sequence sits in: EEALHYLTRVE [SET_Y119]
middle

State the band of QGIIIYKAAYF [SLC25A4_Y187_R188K]
high end

For this sequence, which bin applies? TRSYDYMEGED [FGF7_Y58_G62E]
high end
